test system: Fibroblast; test: Multiplex assay against human fibroblast; format: toxicity, cell-based; conditions: 24 h, 10 µM, compound concentration 10 uM, replicate 1
Please respond with reported Population Mitotic Cells (%) for every item in the list.
Answer in %, number only, no unit symbol.

Requested read-out: Population Mitotic Cells (%). Entry: "Cc1cn(-c2cc(NC(=O)c3ccc(C)c(Nc4nccc(-c5cccnc5)n4)c3)cc(C(F)(F)F)c2)cn1"
22

Item: "Cl.Oc1ccc2c3c1O[C@H]1c4[nH]c5c(c4C[C@@]4(O)[C@@H](C2)N(CC2CC2)CC[C@]314)C[C@@]1(O)[C@H]2Cc3ccc(O)c4c3[C@@]1(CCN2CC1CC1)[C@H]5O4"
34

Item: "Cl.O=c1c2cccn2c2ccccc2n1CCCN1CCC(c2ccc(Cl)cc2)CC1"
32

Item: "O=C(Cc1ccc(-c2ccc(OCCN3CCOCC3)cc2)cn1)NCc1ccccc1"
45

Item: "CCOc1cc2ncc(C#N)c(Nc3ccc(OCc4ccccn4)c(Cl)c3)c2cc1NC(=O)/C=C/CN(C)C"
47

Item: "CCCn1c(=O)c2[nH]c(-c3cnn(Cc4cccc(C(F)(F)F)c4)c3)nc2n(CC)c1=O"
12

Item: "COC(=N)c1nc2ccc3ncnc(Nc4ccc(OC)cc4F)c3c2s1"
34

Item: CCOC(=O)c1c(C)[nH]c2ccc3c(c12)CN1CCc2cc(OC)ccc2C1O3 (stereo unspecified)
30

Item: "COc1cc(N2CCN(C)CC2)ccc1Nc1ncc2c(n1)N(C)c1ccccc1C(=O)N2C"
40

Item: "CCN1CCN(c2ccc(Nc3cc(N(C)C(=O)Nc4c(Cl)c(OC)cc(OC)c4Cl)ncn3)cc2)CC1"
31

Item: "COCC(=O)NC/C=C/c1ccc2ncnc(Nc3ccc(Oc4ccc(C)nc4)c(C)c3)c2c1"
42

Item: "CCn1c(=O)c(-c2ccc(-c3cncs3)cc2Cl)cc2cnc(Nc3ccc(N4CCN(C)CC4)cc3)nc21"
15

Item: "CCn1cc(-c2ccnc3[nH]c(-c4cccc(CN(C)C)c4)cc23)c(-c2ccc(NC(=O)N(C)C)cc2)n1"
50

Item: "Cn1nc(C(F)(F)F)cc1-c1cnc(N2CCc3cc(S(=O)(=O)Nc4c(F)cc(Cl)cc4F)cc(N4CCCC4=O)c32)nc1"
57

Item: "CNc1cc(Oc2cc(C(=O)Nc3cc(N4CCN(C)CC4)cc(C(F)(F)F)c3)ccc2C)ncn1"
19

Item: "COc1ccc(-c2ccc3c(N4CCOCC4)nc(N4C[C@@H](C)O[C@@H](C)C4)nc3n2)cc1CO"
40

Item: "CCOc1cc(C(=O)N2CCC(N3CCN(C)CC3)CC2)ccc1Nc1ncc2c(n1)N(C1CCCC1)c1ccccc1C(=O)N2C"
23

Item: "Cc1ccc(C(=O)Nc2cccc(C(F)(F)F)c2)cc1Nc1nc(-c2cccnc2)nc2c1cnn2C"
14

Item: "O=C(Nc1ccc(-c2ccnc(Nc3ccc(N4CCOCC4)cc3)n2)cc1)[C@@H]1CCCN1"
42

Item: CN(C)C(=O)C(CCN1CCC(O)(c2ccc(Cl)cc2)CC1)(c1ccccc1)c1ccccc1.Cl [LOPERAMIDE HYDROCHLORIDE]
17

Item: CN1CCC(=C2c3ccccc3CC(=O)c3sccc32)CC1.O=C(O)/C=C/C(=O)O [KETOTIFEN FUMARATE]
25

Item: "C=CCn1c(=O)c2cnc(Nc3ccc(N4CCN(C)CC4)cc3)nc2n1-c1cccc(C(C)(C)O)n1"
43

Item: "COc1cc(N2CCC(N3CCN(C)CC3)CC2)ccc1Nc1ncnc(Nc2ccccc2S(=O)(=O)C(C)C)n1"
20

Item: "NC(=O)c1cccc(-c2cc(Nc3ccc(OC(F)(F)F)cc3)ncn2)c1"
44

Item: "O=C1NC(=O)C(c2cnc3ccccn23)=C1c1cn2c3c(cc(F)cc13)CN(C(=O)N1CCCCC1)CC2"
29

Item: "O=C(Nc1ccc(Cl)cc1)Nc1cccc(-c2cccc(N3CCCC3)n2)c1"
8

Item: "CCN1CCN(Cc2ccc(Nc3ncc(F)c(-c4cc(F)c5nc(C)n(C(C)C)c5c4)n3)nc2)CC1.CS(=O)(=O)O"
20

Item: "COc1ccc(S(=O)(=O)N(CCO)c2ccccc2CN(C)C/C=C/c2ccc(Cl)cc2)cc1.O=P(O)(O)O"
30

Item: "O=C1N/C(=N/c2ccccc2F)S/C1=C\c1ccc(C(=O)O)cc1"
34

Item: "Cc1cc(C)c(S(=O)(=O)N(Cc2ccc(-c3cccc(S(C)(=O)=O)c3)cc2)Cc2ccc(C(F)(F)F)o2)c(C)c1"
22

Item: "C=C1/C(=C\C=C2/CCC[C@]3(C)[C@@H]([C@H](C)/C=C/[C@H](C)C(C)C)CC[C@@H]23)C[C@@H](O)C[C@@H]1O"
30
